SUBJECT_OF_TEST: recombinant human GAA (acid alpha-glucosidase) (Homo sapiens)
TEST_NAME: Acid alpha-glucosidase (GAA) assay (4-methylumbelliferyl-alpha-D-pyranoside substrate, fluorescence)
List of IC50 values.

Some compounds with recorded IC50:
OC[C@@H]1[C@@H](O)[C@H](O)[C@@H](O)CN1Cc1ccc(CNc2cc(-c3ncccn3)cc(C3CC3)c2)cc1 254 nM
OC[C@@H]1[C@@H](O)[C@H](O)[C@@H](O)CN1CCc1cn(CCNc2ccccc2)c2ccccc12 4260 nM
COc1cc(NCCCCCCN2C[C@H](O)[C@@H](O)[C@H](O)[C@H]2CO)cc(C2CCCCC2)c1 88 nM
Cc1cc(NCc2ccc(CN3C[C@H](O)[C@@H](O)[C@H](O)[C@H]3CO)cc2)cc(-n2nccn2)c1 94 nM
OC[C@@H]1[C@@H](O)[C@H](O)[C@@H](O)CN1CCc1ccc(CCNc2cc(Cl)cc(-c3ccco3)c2)cc1 < 1 nM
[N-]=[N+]=Nc1ccc(N2CC(OCCN3C[C@H](O)[C@@H](O)[C@H](O)[C@H]3CO)C2)c([N+](=O)[O-])c1 141 nM

# evaluate next
[ask] What measured IC50 is associated with "[N-]=[N+]=Nc1ccc(NCCc2cncc(CCN3C[C@H](O)[C@@H](O)[C@H](O)[C@H]3CO)n2)c([N+](=O)[O-])c1" on recombinant human GAA (acid alpha-glucosidase) (Homo sapiens)?
[reply] 615 nM
